Listed compounds paired with reported TGI
- Test system: MOLT-4 leukemia
- protocol.text: NCI tumour cell line growth inhibition, 48 h

Worked set:
[[record]]
compound = "CC1=CC(=O)C[C@]2(C)[C@@H](O)CC(C(C)CO)C[C@@H]12 (stereo partly drawn)"
result = "> 100 µM"

[[record]]
compound = "CC(C)NC(=O)OCc1c(COC(=O)NC(C)C)c(-c2ccc[n+](COC(=O)C3CCCCC3)c2)n2c1CCC2"
result = "> 100 µM"


Now for the compound whose TGI we want.
Given Cc1ccc(-c2c(C#N)c(O)n(NS(=O)(=O)c3ccccc3)c(=O)c2C#N)cc1 , respond with its TGI. > 100 µM

====

- Test system: SF-268 CNS
- protocol.text: NCI tumour cell line growth inhibition, 48 h
test.readout: TGI

Completed entries (count: 3):
[[record]]
compound = "CC(C)Oc1c(O)c2c3c(oc(=O)n3C=CC2c2ccccc2F)c1OC(C)C (stereo not given)"
tested_system = "SF-268 CNS"
test_readout = "TGI"
result = "> 100 µM"

[[record]]
compound = "CC(=O)/C=C\\C(=O)NNS(=O)(=O)c1ccc(C)cc1"
tested_system = "SF-268 CNS"
test_readout = "TGI"
result = "> 100 µM"

[[record]]
compound = "O=C(N/N=C/c1cc(-c2ccccc2Cl)c(-c2ccccc2Cl)o1)c1ccncc1"
tested_system = "SF-268 CNS"
test_readout = "TGI"
result = "> 100 µM"


Give the measured TGI for COc1c(C)cnc(Cn2cnc3c(Cl)nc(N)nc32)c1C > 100 µM

Give the reported value of TGI for this record: O=C(Cc1nc2ccccc2s1)C(=O)Nc1ccccc1C(F)(F)F > 100 µM

====

- System: OVCAR-5 ovarian
- protocol.text: NCI tumour cell line growth inhibition, 48 h
test.readout: TGI

Look over these answered cases.
[[record]]
compound = "N#Cc1ccccc1C#C/C=C\\C#Cc1cnccn1"
tested_system = "OVCAR-5 ovarian"
result = "> 49.9 µM"

[[record]]
compound = "CN(C)CCCNc1ccc2nnn3c4ccc([N+](=O)[O-])cc4c(=O)c1c23"
tested_system = "OVCAR-5 ovarian"
result = "9.59 µM"

[[record]]
compound = "COC(=O)[C@@H](C)C[C@H](Cc1ccccc1)NC(=O)c1cccc([C@@H](C[C@H](C(C)C)N(C)C(=O)[C@@H](NC(=O)[C@H]2CCCCN2C)C(C)C)OC(C)=O)n1"
tested_system = "OVCAR-5 ovarian"
result = "> 16.7 µM"

[[record]]
compound = "CC(C)(C)C(=O)Cc1cc2c(cc1C(=O)O)S(=O)(=O)NC(C(C)(C)C)=C2"
tested_system = "OVCAR-5 ovarian"
result = "> 100 µM"

[[record]]
compound = "CCCCCC(=O)OC[n+]1ccc2c(C)c3[nH]c4ccccc4c3c(C)c2c1"
tested_system = "OVCAR-5 ovarian"
result = "2.75 µM"

[[record]]
compound = "CC1SC(c2cccc(Oc3ccccc3)c2)N(CCc2cccs2)C1=O (configuration not stated)"
tested_system = "OVCAR-5 ovarian"
result = "5.89 µM"


// next entry
Tell me TGI reported for Cc1ccc(S(=O)(=O)c2ccccn2)cc1 97.2 µM

====

Reported TGI by item:
- System: NCI/ADR-RES ovarian
- protocol.text: NCI tumour cell line growth inhibition, 48 h
Answer with a number only, understood to be in µM.

Guide cases for TGI, answers given:
[[record]]
compound = "CCS(=O)(=O)Nc1ccc(Oc2ccc(F)cc2F)c(-c2cn(C)c(=O)c3[nH]ccc23)c1"
unit = "µM"
readout_number = 39.4

[[record]]
compound = "CCO/C=N/C1=C(C#N)C(c2ccc(OC)c(OC)c2)c2c(-c3ccccc3)nn(-c3ccccc3)c2O1 (configuration not stated)"
unit = "µM"
readout_number = 48.3

[[record]]
compound = "Fc1ccccc1N=c1oc2ccc(Br)cc2cc1-c1nc2ccccc2[nH]1"
unit = "µM"
readout_number = 65.7

[[record]]
compound = "COc1cc(C2C3=C(COC3=O)N(CCO)c3cc4c(cc32)CCC4)cc(OC)c1OC (configuration not stated)"
unit = "µM"
readout_number = 4.45


In the following, a different compound is considered.
Look up TGI of COc1ccc(/C(C)=C(\c2ccc(Cl)cc2)c2ccc(OCCN3CCCCC3)cc2)cc1F and report it. 9.67
